meta.source: patent US20150337013A1

# System: Staphylococcus aureus SAU.278, Daptomycin resistant mutant (D10)
# Format: cell-based
# Setup conditions: MHBc with 50 mg/L calcium, 18-20 hours at 37° C.
Quantity name: Sa278 MIC
Param answer (str): number followed by unit.

CCCCCCCCCCOc1ccc(C(=O)N[C@@H](Cc2c[nH]c3ccccc23)C(=O)N[C@H](CC(N)=O)C(=O)N[C@@H](CC(=O)O)C(=O)N[C@@H]2C(=O)NCC(=O)N[C@@H](CCCN)C(=O)N[C@@H](CC(=O)O)C(=O)N[C@H](C)C(=O)N[C@@H](CC(=O)O)C(=O)NCC(=O)N[C@H](CO)C(=O)N[C@@H]([C@H](C)CC(=O)O)C(=O)N[C@@H](CC(=O)c3ccccc3N)C(=O)O[C@@H]2C)cc1 | 0.50 µg/mL

Prompt line: Any idea what its Sa278 MIC is? The compound is CCCCOc1ccc(-c2ccc(C(=O)N[C@@H](Cc3c[nH]c4ccccc34)C(=O)N[C@H](CC(N)=O)C(=O)N[C@@H](CC(=O)O)C(=O)N[C@@H]3C(=O)NCC(=O)N[C@@H](CCCN)C(=O)N[C@@H](CC(=O)O)C(=O)N[C@H](C)C(=O)N[C@@H](CC(=O)O)C(=O)NCC(=O)N[C@H](CO)C(=O)N[C@@H]([C@H](C)CC(=O)O)C(=O)N[C@@H](CC(=O)c4ccccc4N)C(=O)O[C@@H]3C)cc2)cc1
Response line: 8 µg/mL
